target: Neurogenic locus notch homolog protein 2 (Homo sapiens); assay: Notch2 binders on small-molecule microarrays, primary screen, biochemical, small-molecule microarray, 635 nm fluorescence, stem cell growth factors (AID 1073); conditions: Notch2 binding, higher = more signal
Answer NO if composite z-score is under 0.9, and YES if it is 0.9 or more.

Incoming: Decide: composite z-score of `CN(C)CCCCCCNC(=O)[C@@H]1C[C@@H]2C(=O)N[C@@H](CCCCN)C(=O)N2[C@@H]1c1cccc(OCCO)c1` >= 0.9?
Outgoing: YES

Incoming: Decide: composite z-score of CC(C)C[C@H]1NC(=O)[C@@]23C(=O)N[C@@H](Cc4ccccc4)C2[C@H](C)[C@@]2(C)O[C@H]2C3/C=C/C/C=C\CNC(=O)[C@H](Cc2ccccc2)NC1=O (some centres not stated) >= 0.9?
Outgoing: NO

Incoming: Decide: composite z-score of O=C1OCC=C[C@H]2OC34C=CCN(c5ccc6ccccc6c5)C(=O)[C@H]3N(CCCCCCO)C(=O)[C@@H]4[C@@H]12 (some centres not stated) >= 0.9?
Outgoing: NO

Incoming: Decide: composite z-score of O=C1OCC=C[C@H]2OC34C=CCN(CCN5CCOCC5)C(=O)[C@H]3N(CCCO)C(=O)[C@@H]4[C@@H]12 (some centres not stated) >= 0.9?
Outgoing: NO

Incoming: Decide: composite z-score of `COC(=O)[C@@]1(Cc2ccccc2)[C@H]2c3cc(C(=O)N4CCCC4)n(Cc4nc5ccccc5[nH]4)c3C[C@H]2CN1C(=O)c1ccccc1` >= 0.9?
Outgoing: YES

Incoming: Decide: composite z-score of `COc1cc2c(cc1OC)CN(C(=O)[C@H]1[C@@H]3C(=O)O[C@@H](c4ccccc4)[C@@H](c4ccccc4)N3[C@@H](c3ccc(O)cc3)[C@]13C(=O)Nc1ccc(C#CC4=CCCCC4)cc13)CC2` >= 0.9?
Outgoing: YES

###

assay: P. aeruginosa biofilm formation inhibitors, primary screen, PAO1 strain, BacTiter-Glo luminescence, LB-PBS (AID 1144); settings: 12 h, higher = more signal
Please respond with reported z-score for every item in the list.
Reply briefly: the number, and no unit.

Incoming: Tell me z-score reported for `C=C(CCCC)C(=O)CC[C@H](OC(C)=O)c1cccc(OCCO)c1`
Outgoing: 0.428

Incoming: Tell me z-score reported for `[N-]=[N+]=NCc1ccccc1C[C@]1(C(=O)N2CCOCC2)N=C(c2ccc(OCCCO)cc2)O[C@H]1c1ccccc1N=[N+]=[N-]`
Outgoing: -0.447

Incoming: Tell me z-score reported for `COC(=O)[C@@]1(Cc2ccc(F)cc2)[C@H]2c3cc(C(=O)N(C)C)n(CC4CC4)c3C[C@H]2CN1C(=O)c1ccccc1`
Outgoing: 0.163

Incoming: Tell me z-score reported for `CCOC(=O)C[C@H]1[C@H](OC(=O)c2cc3ccccc3oc2=O)[C@@H](NC(=O)C2CCCCC2)c2cc(OCCCO)ccc2N1C(=O)c1ccccc1`
Outgoing: 0.838

Incoming: Tell me z-score reported for `Cc1ccc(S[C@]2(C(=O)NC3CC3)CC(=O)N(C3Cc4ccccc4C3)[C@@H]2c2ccc(CO)cc2)cc1`
Outgoing: -0.401

Incoming: Tell me z-score reported for O=C1OCCC/C=C\[C@H]2OC34C=CCN(CCN5CCOCC5)C(=O)[C@H]3N(CCCO)C(=O)[C@@H]4C12 (stereo partly drawn)
Outgoing: 1.46

Incoming: Tell me z-score reported for `CCCC[C@H]1OB(O)C[C@H]2C1=C(COc1ccccc1)C[C@H]1C(=O)N(C)C(=O)[C@H]12`
Outgoing: 1.04

Incoming: Tell me z-score reported for `COCC(=C=CC[C@@H](O)c1ccccc1OCCO)C[C@@H](O)c1cc(Cl)cc(Cl)c1O`
Outgoing: 0.112

###

tested on: Neuregulin-1 EGF-like domain; assay: binders of neuregulin-1 EGF-like domain, primary screen, biochemical, small-molecule microarray, 635 nm fluorescence (AID 1081); conditions: small-molecule microarray binding, higher = more signal;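 also: binding of the protein to compounds printed on small-molecule microarray slides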
PARAMETER: composite z-score
Reply briefly: the number, and no unit.

Incoming: Tell me composite z-score reported for `CC(C)N1C(=O)[C@@]2(Cc3ccccc31)c1ccccc1C(=O)N(C1CCCCC1)[C@H]2c1ccc(CO)cc1`
Outgoing: 1.24

Incoming: Tell me composite z-score reported for `COCCOC(=O)N1C(=O)[C@@]2(c3cc(C#CCCO)ccc31)[C@H](C(=O)N1CCc3cc(OC)c(OC)cc3C1)[C@H]1C(=O)O[C@H](c3ccccc3)[C@H](c3ccccc3)N1[C@@H]2c1ccc(O)cc1`
Outgoing: 1.32

Incoming: Tell me composite z-score reported for `COc1ccc(CCN2C(=O)[C@@]3(c4ccc([N+](=O)[O-])cc4)CC(=O)N(C4CCCCC4)[C@@H]3c3ccc(CO)cc32)cc1`
Outgoing: 1.46

Incoming: Tell me composite z-score reported for `CC(C)C[C@@H]1NC(=O)[C@H]2C[C@@H](C(=O)NCCCCCCN(C)C)[C@@H](c3ccc(O)cc3)N2C1=O`
Outgoing: 1.48

Incoming: Tell me composite z-score reported for COc1ccc(C(O)C2C=CC3C(=O)N(c4ccccc4)C(=O)C3N2Nc2ccc(C(C)C)cc2)cc1OCc1ccccc1 (stereo not given)
Outgoing: 1.1

Incoming: Tell me composite z-score reported for `C=CCOC(=O)[C@H]1[C@@H]2C(=O)O[C@@H](c3ccccc3)[C@@H](c3ccccc3)N2[C@@H](c2ccc(OCCOC(=O)[C@H]3C[C@H]4C(=O)N5CCC[C@H]5C(=O)N4[C@H]3c3ccc(O)cc3)cc2)[C@]12C(=O)Nc1ccc(I)cc12`
Outgoing: 1.44

Incoming: Tell me composite z-score reported for `C=CCOC(=O)[C@@H]1[C@H]2C(=O)O[C@H](c3ccccc3)[C@H](c3ccccc3)N2[C@H](c2ccc(OCCOC(=O)[C@@H]3C[C@@H]4C(=O)N[C@@H](Cc5ccccc5)C(=O)N4[C@@H]3c3ccc(O)cc3)cc2)[C@@]12C(=O)Nc1ccc(I)cc12`
Outgoing: 1.14

Incoming: Tell me composite z-score reported for O=C1C2C=CC(C(O)C3CCCCC3)N(Nc3ccc([N+](=O)[O-])cc3)C2C(=O)N1c1ccccc1 (stereo not given)
Outgoing: 1.18

Incoming: Tell me composite z-score reported for `C=CC[C@@]1(C(N)=O)N=C(c2ccc(OCCCO)cc2)O[C@@H]1c1ccccc1CN=[N+]=[N-]`
Outgoing: 1.41

Incoming: Tell me composite z-score reported for `CC(=O)NCCCC[C@@H]1NC(=O)[C@@H]2C[C@H](C(=O)NCCCCN(C)C)[C@H](c3cccc(OCCO)c3)N2C1=O`
Outgoing: 1.12

Incoming: Tell me composite z-score reported for `COC(=O)[C@@]1(Cc2ccc(OC)cc2)[C@H]2c3cc(C(=O)N(C)C)n(Cc4cccc5ccccc45)c3C[C@H]2CN1C(=O)c1ccccc1`
Outgoing: 1.36

Incoming: Tell me composite z-score reported for `COC(=O)[C@@]1(Cc2ccc(OC)cc2)[C@H]2c3cc(C(=O)N4CCCC4)n(Cc4ccccc4)c3C[C@H]2CN1C(=O)c1ccccc1`
Outgoing: 1.36

Incoming: Tell me composite z-score reported for `COc1ccc([Si](C)(C)[C@@H]2[C@@H](CC(=O)N3Cc4ccccc4C[C@H]3CO)O[C@]3(C(=O)N(C)c4c(Br)cc(C)cc43)[C@H]2C)cc1`
Outgoing: 1.12

Incoming: Tell me composite z-score reported for `C=CCOC(=O)[C@H]1[C@@H]2C(=O)O[C@@H](c3ccccc3)[C@@H](c3ccccc3)N2[C@@H](c2ccc(OCCOC(=O)[C@H]3C[C@H]4C(=O)N5CCC[C@H]5C(=O)N4[C@H]3c3ccc(O)cc3)cc2)[C@]12C(=O)Nc1ccccc12`
Outgoing: 1.4

Incoming: Tell me composite z-score reported for `C=CCOC(=O)[C@@H]1[C@H]2C(=O)O[C@H](c3ccccc3)[C@H](c3ccccc3)N2[C@H](c2ccc(OCCOC(=O)[C@@H]3C[C@@H]4C(=O)N[C@@H](CCCCN(C)C)C(=O)N4[C@@H]3c3ccc(O)cc3)cc2)[C@@]12C(=O)Nc1ccc(I)cc12`
Outgoing: 1.2

Incoming: Tell me composite z-score reported for `COC(=O)[C@@]1(Cc2ccc(OC)cc2)[C@H]2c3cc(C(=O)N4CCCC4)n(Cc4ccsc4Br)c3C[C@H]2CN1C(=O)c1ccccc1`
Outgoing: 1.08

Incoming: Tell me composite z-score reported for `C=CCOC(=O)[C@@H]1[C@H]2C(=O)O[C@H](c3ccccc3)[C@H](c3ccccc3)N2[C@H](c2ccc(OCCOC(=O)[C@@H]3C[C@@H]4C(=O)N[C@@H](CCCC[N+](C)(C)C)C(=O)N4[C@@H]3c3cccc(OCCO)c3)cc2)[C@@]12C(=O)Nc1ccc(I)cc12`
Outgoing: 1.23

Incoming: Tell me composite z-score reported for `COCC(=C=CC[C@H](O)c1ccccc1OCCO)C[C@H](O)c1cc(Cl)cc(Cl)c1O`
Outgoing: 1.14

Incoming: Tell me composite z-score reported for O=C1OCCC/C=C\[C@H]2OC34C=CCN(Cn5nnc6ccccc65)C(=O)[C@H]3N(CCO)C(=O)[C@@H]4C12 (stereo not given in full)
Outgoing: 1.16

Incoming: Tell me composite z-score reported for `CC(=O)NCCCC[C@@H]1NC(=O)[C@@H]2C[C@H](C(=O)NCCCCCCNC(=O)CS)[C@H](c3cccc(OCCO)c3)N2C1=O`
Outgoing: 1.24

Incoming: Tell me composite z-score reported for `C=C[C@H](COC(C)=O)N(C(=O)OC(C)(C)C)S(=O)(=O)c1ccc(Br)cc1`
Outgoing: 0.652

Incoming: Tell me composite z-score reported for COc1cc2c(cc1O)C(C1CC1)N(Cc1cc3c(cc1Br)OCO3)CC2 (stereo not given)
Outgoing: 1.02

Incoming: Tell me composite z-score reported for COc1ccc(COC2OC[C@]3(C)[C@H]4C5=C(CN3C(=O)OC(C)(C)C)[C@H](C)C(CO)C(CO)C5CC[C@@H]24)cc1 (stereo not given in full)
Outgoing: 0.982

Incoming: Tell me composite z-score reported for `C=C(CCCC)C(=O)CC[C@H](OC(=O)c1cccnc1)c1ccccc1OCCO`
Outgoing: 0.22

Incoming: Tell me composite z-score reported for Cc1ccc(C(C)CC(O)C2C=CC3C(=O)N(c4ccccc4)C(=O)C3N2Nc2ccc([N+](=O)[O-])cc2)o1 (stereo not given)
Outgoing: 1.2
